Listing: recombinant UMI read abundance (log10) of selected sequences
- METHOD DESCRIPTION: recombinant UMI read abundance after kanamycin selection (control-corrected) (log10(CPM+1)); higher = more efficient recombination; extreme values may be limits of the assay; sequences stand for … in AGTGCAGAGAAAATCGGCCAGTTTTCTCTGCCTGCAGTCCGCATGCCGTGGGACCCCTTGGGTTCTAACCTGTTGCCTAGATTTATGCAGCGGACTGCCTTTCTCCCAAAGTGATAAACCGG…AGGTTGGTTTCACT; site = the 11-nt donor;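 note: IS621 bridge recombinase in Escherichia coli cells against a fixed T5 target plasmid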
# output: bare number, no unit

Previously resolved entries follow.
| PRIMARY SEQUENCE | VALUE OBSERVED |
| --- | --- |
| CGTGTCGCATGGACCGGTTTTCCCGGTAATCCGTATTTGTG (site CGTGTCGCTCA) | 0.701 |
| CCGAAGCCATGGACCGGTTTTCCCGGTAATCCGTATTTGTG (site CCGAAGCCTCA) | 0.0182 |
| TCCCCCGCATGGACCGGTTTTCCCGGTAATCCGTATTTGCG (site TCCACCGCTCG) | 0.00501 |
| CGGAATCCATGGACCGGTTTTCCCGGTAATCCGTATTTGGT (site CGGAATCCTAA) | 0 |
| GAATGAGCATGGACCGGTTTTCCCGGTAATCCGTATTTGGG (site CAATGAGCTCC) | 0.0211 |
| CGTCCAGCATGGACCGGTTTTCCCGGTAATCCGTATTTGCT (site CGTCCAGCTAG) | 0.438 |
| GGCCATCCATGGACCGGTTTTCCCGGTAATCCGTATTTGTT (site GGCCACCCTAA) | 0.0125 |
| ATTGAGACATGGACCGGTTTTCCCGGTAATCCGTATTTGGT (site ATTGGGACTAC) | 0.407 |
| CGCCGAACATGGACCGGTTTTCCCGGTAATCCGTATTTGCT (site CGCCGTACTAG) | 0.00823 |
| CAGGCGCCATGGACCGGTTTTCCCGGTAATCCGTATTTGTG (site CAGGCGCCTCA) | 0.428 |

Measured recombinant UMI read abundance (log10) of GTAGTCCCATGGACCGGTTTTCCCGGTAATCCGTATTTGCG (site GTAGTCACTCG) : 0.251

Briefly, recombinant UMI read abundance (log10) measured for GAGGCAACATGGACCGGTTTTCCCGGTAATCCGTATTTGCT (site GAGGCAACTAG) : 1.66

For this sequence ( CCCGATCCATGGACCGGTTTTCCCGGTAATCCGTATTTGCA (site CCCGCTCCTTG) ), measured recombinant UMI read abundance (log10) is 0

Recorded result, ATTGCCCCATGGACCGGTTTTCCCGGTAATCCGTATTTGTC (site ATTGCCCCTGA) , recombinant UMI read abundance (log10): 0

The sequence identified as CAATTCCCATGGACCGGTTTTCCCGGTAATCCGTATTTGCT (site AAATTCCCTAG) registered its recombinant UMI read abundance (log10) at 0

Entry GCAAACGCATGGACCGGTTTTCCCGGTAATCCGTATTTGTG (site GCAAACGCTCA) ; recombinant UMI read abundance (log10) = 1.98

So for CGTACGTCATGGACCGGTTTTCCCGGTAATCCGTATTTGTT (site TGTACGTCTAA) , the logged recombinant UMI read abundance (log10) turned out to be 0.00974

recombinant UMI read abundance (log10) in this record for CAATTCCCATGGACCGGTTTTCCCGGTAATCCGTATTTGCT (site CAATTCCCTGG) : 0

The recorded recombinant UMI read abundance (log10) for CTACTATCATGGACCGGTTTTCCCGGTAATCCGTATTTGCC (site CTAGTATCTGT) is 0

Entry CGAATTCCATGGACCGGTTTTCCCGGTAATCCGTATTTGCG (site CGAATTCCTCG) , recombinant UMI read abundance (log10) reported as 0.935

For this sequence ( AGCCCATCATGGACCGGTTTTCCCGGTAATCCGTATTTGCT (site AGCCCATCTAG) ), measured recombinant UMI read abundance (log10) is 1.83

The reported value for ATAAGCCCATGGACCGGTTTTCCCGGTAATCCGTATTTGAC (site ATAAGACCTGT) in terms of recombinant UMI read abundance (log10) is 0

get_value(item= AGGAAGTCATGGACCGGTTTTCCCGGTAATCCGTATTTGCA (site AGGAAGGCTTG) , readout=recombinant UMI read abundance (log10)) returns 0

The measured recombinant UMI read abundance (log10) associated with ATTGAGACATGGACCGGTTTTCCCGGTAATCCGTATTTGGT (site ATTGCGACTAC) reads 0.151

recombinant UMI read abundance (log10) recorded for this sequence, TTTAATTCATGGACCGGTTTTCCCGGTAATCCGTATTTGGG (site TTTAATTCTCC) , is 1.33

In plain terms, GACCCATCATGGACCGGTTTTCCCGGTAATCCGTATTTGCC (site GACCCATCTGG) has a documented recombinant UMI read abundance (log10) of 1.64

Measured recombinant UMI read abundance (log10), TAAGCCACATGGACCGGTTTTCCCGGTAATCCGTATTTGAC (site TAAGCCACTGT) : 2.78
